assay: P. aeruginosa biofilm formation inhibitors, primary screen, strain PAO1, LB-PBS medium, absorbance 600 nm (AID 1176); note: test concentration not given here; conditions: P. aeruginosa PAO1 growth/biofilm, A600, 12 h; higher = more signal
Quantity measured: z-score
Give a plain numeric answer without units written out.

Input COCC1=C2[C@@H](CCc3ccccc3)OB(O)C[C@@H]2[C@@H]2C(=O)N(C)C(=O)[C@@H]2C1 . Output z-score: 0.294

Input CC1CC/C=C\[C@H]2OC34C=CCN(C(C)(C)C)C(=O)[C@H]3N(C(CO)C(C)C)C(=O)[C@@H]4C2C(=O)O1 (stereo partly drawn) . Output z-score: 0.0251

Input COCCOC(=O)N1C(=O)[C@@]2(c3cc(C#CCC(C(=O)OC)C(=O)OC)ccc31)[C@H](c1ccc(O)cc1)N1[C@H](c3ccccc3)[C@H](c3ccccc3)OC(=O)[C@H]1[C@@H]2C(=O)NC[C@H](O)c1ccccc1 . Output z-score: -0.489

====

Would you kindly list composite z-score for each of these molecules?
molecular target: Torsin-1A-interacting protein 2 (Homo sapiens); assay: LULL1 binders on small-molecule microarray, primary screen, cell lysate, human LULL1 lysate, 635/667 nm fluorescence (AID 1092); details: hLULL1 lysate binding, 635 nm fluorescence, higher = more signal;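 note: probe is lysate of COS7 cells overexpressing human LULL1; score merges per-feature 667 nm fluorescence with signal-to-noise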

Input COCC1=C2[C@@H](CCc3ccccc3)OB(O)C[C@@H]2[C@@H]2C(=O)N(C)C(=O)[C@@H]2C1 . Output composite z-score: 0.332

Input NCCCCCNC(=O)[C@H]1C[C@H]2C(=O)N[C@@H](Cc3ccccc3)C(=O)N2[C@H]1c1ccc(O)cc1 . Output composite z-score: 1.92

Input CCN(CC)c1ccc(N2CC=CC34O[C@@H]5/C=C\CCC(C)OC(=O)C5[C@H]3C(=O)N(C(C)CO)[C@@H]4C2=O)cc1 (stereo partly specified) . Output composite z-score: -0.139

Input C=C(COC)C(=O)CC[C@H](OC(=O)c1cccnc1)c1ccc(CO)o1 . Output composite z-score: 0.103

Input C[C@]1(C(=O)NCC(F)(F)F)c2ccccc2C(=O)N(Cc2ccccc2)[C@H]1c1ccc(CO)cc1 . Output composite z-score: 1.57

Input O=c1cccc(-c2ccco2)o1 . Output composite z-score: 0.108

Input CN1C(=O)C2C(C1=O)C1C=C(CCCO)C2C(C2CC2)N1Cc1cc2c(cc1Br)OCO2 (stereo unspecified) . Output composite z-score: 2.82

Input CN1C(=O)C2C=CC(C(O)c3ccc(I)cc3)N(Nc3ccccc3)C2C1=O (stereo unspecified) . Output composite z-score: 2.99

Input C=C(/C(=C/C[C@@H](OC(=O)c1ccncc1)c1cccc(OCCO)c1)c1cnc2ccccc2c1)C(C)C . Output composite z-score: 2.03

Input O=C(N1CCOCC1)[C@@]1(CCS(=O)(=O)c2ccccc2)N=C(c2ccc(OCCCO)cc2)O[C@H]1c1ccccc1 . Output composite z-score: 3.56

Input CC(C)C(=C=CC[C@@H](O)c1cccc(OCCO)c1)C[C@@H](O)c1ccccn1 . Output composite z-score: 1.26

Input CC(C)C(CO)N1C(=O)[C@@H]2[C@H]3C(=O)OCC=C[C@H]3OC23C=CCN(C(C)(C)C)C(=O)[C@@H]13 (stereo partly specified) . Output composite z-score: -0.963

Input Cc1ccc(N2C(=O)c3ccccc3[C@](C)(C(=O)NCc3ccccc3)[C@@H]2c2ccc(CO)cc2)nc1 . Output composite z-score: 0.945

Input COc1ccc([Si](C)(C)[C@H]2[C@H](CCO)O[C@@]3(C(=O)N(Cc4ccccc4)c4ccc(N5C(=O)c6ccccc6Oc6ccccc65)cc43)[C@@H]2C)cc1 . Output composite z-score: 1.94

Input C[C@@H]1ON(c2ccc(I)cc2)[C@H](c2ccc(OC(=O)OC(C)(C)C)cc2)[C@H]1C(=O)N1C(=O)OC[C@H]1Cc1ccccc1 . Output composite z-score: 2.08

Input CO[C@H]1O[C@H](CO)[C@@H](OC(=O)Nc2cccc(F)c2)[C@H](OC(=O)Nc2ccccc2-c2ccccc2)[C@H]1OC(=O)Nc1ccccc1-c1ccccc1 . Output composite z-score: 3.08

Input CCOC(=O)C1=CCC(c2ccccc2)N(S(=O)(=O)c2ccc([N+](=O)[O-])cc2)C1 (stereo unspecified) . Output composite z-score: 1.33

Input CN(C)C(=O)[C@@]1(Cc2ccccc2)COC(c2ccc(OCCCO)cc2)=N1 . Output composite z-score: 2.87

Input COc1ccc([Si](C)(C)[C@@H]2[C@@H](CCn3cc([C@H](O)c4ccccc4)nn3)O[C@]3(C(=O)N(c4ccccc4)c4ccccc43)[C@H]2C)cc1 . Output composite z-score: 0.986

Input CC(C)CNC(=O)[C@@]1(c2ccc([N+](=O)[O-])cc2)CC(=O)N(C2CCCCC2)[C@@H]1c1ccc(CO)cc1 . Output composite z-score: 2.54

Input COC(=O)[C@@]1(Cc2ccc(F)cc2)[C@H]2c3cc(C(=O)N(C)C)n(Cc4ccc(O)c(OC)c4)c3C[C@H]2CN1C(=O)c1ccccc1 . Output composite z-score: 2.2

Input CN1C(=O)C2C=CC(C(O)c3cc(C(F)(F)F)cc(C(F)(F)F)c3)N(Nc3ccccc3)C2C1=O (stereo unspecified) . Output composite z-score: 3.85

Input COCCOC(=O)N1C(=O)[C@@]2(c3ccccc31)[C@H](c1ccc(OCCO)cc1)N1[C@H](c3ccccc3)[C@H](c3ccccc3)OC(=O)[C@H]1[C@@H]2C(=O)N1CCCCCCC1 . Output composite z-score: 5.18

Input C=C(C(=O)CC[C@H](OC(=O)c1ccccc1-c1ccccc1C(=O)O)c1ccccc1OCCO)C(C)C . Output composite z-score: 1.46

Input C=C(CCCC)C(=O)CC[C@H](OC(C)=O)c1ccc(OCCO)cc1 . Output composite z-score: -0.835

Input NC(=O)[C@@H]1[C@H]2C(=O)O[C@H](c3ccccc3)[C@H](c3ccccc3)N2[C@H](c2ccc(OCCO)cc2)[C@@]12C(=O)Nc1ccc(C#CCCO)cc12 . Output composite z-score: 1.85

Input COCCCNC(=O)[C@@H]1c2ccccc2C(=O)N(C2Cc3ccccc3C2)[C@H]1c1ccc(CO)cc1 . Output composite z-score: 1.74

Input C=C(COC)/C(=C/C[C@@H](OC(=O)c1ccncc1)c1ccccc1OCCO)c1cc(C(=O)OC)ccc1OC . Output composite z-score: 0.703

Input COCCOC(=O)N1C(=O)[C@@]2(c3cc(C#CC4(O)CCCCCC4)ccc31)[C@H](C(=O)N1CCN(c3ncccn3)CC1)[C@H]1C(=O)O[C@H](c3ccccc3)[C@H](c3ccccc3)N1[C@@H]2c1ccccc1OCCO . Output composite z-score: 1.79

Input NCCCCCNC(=O)[C@@H]1C[C@@H]2C(=O)N3CCC[C@H]3C(=O)N2[C@@H]1c1ccc(O)cc1 . Output composite z-score: 1.97

Input CC(C)C(=C=CC[C@@H](O)c1cccc(OCCO)c1)C[C@@H](O)COCc1ccccc1 . Output composite z-score: 0.493

====

Would you kindly list z-score for each of these compounds?
assay: MM1S myeloma cell viability, profiling panel, resazurin fluorescence, basal, 24 h, PK04 Diversity Set (AID 1174); details: higher = more signal, called active from +8 up or from −8 down;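 note: MM1S multiple myeloma cell line; test concentration not given here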
Give a plain numeric answer without units written out.

Input C[C@@H]1ON(c2ccc(I)cc2)[C@H](c2ccc(OC(=O)OC(C)(C)C)cc2)[C@H]1C(=O)N1C(=O)OC[C@H]1Cc1ccccc1 . Output z-score: 1.6

Input Cc1ccccc1C(O)C1C=CC2C(=O)N(c3ccccc3)C(=O)C2N1Nc1ccc([N+](=O)[O-])cc1 (centres undefined) . Output z-score: -0.327

Input O=C1C2C=CC(C(O)c3ccc(I)cc3)N(Nc3ccccc3)C2C(=O)N1c1ccccc1 (centres undefined) . Output z-score: -1.38

Input CCN(CC)c1ccc(N2CC=CC34O[C@@H]5C=CCCOC(=O)C5[C@H]3C(=O)N(CCO)[C@@H]4C2=O)cc1 (some centres undefined) . Output z-score: -0.281

====

test system: PRMT1 (protein arginine N-methyltransferase 1); test: PRMT1 binders on small-molecule microarrays, primary screen, biochemical, small-molecule microarray, 635 nm fluorescence (AID 1088); settings: small-molecule microarray binding, higher = more signal;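 note: binding of Prmt1 protein to compounds spotted on small-molecule microarray slides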
Quantity measured: composite z-score
Give a plain numeric answer without units written out.

Input COCCCNC(=O)[C@@H]1c2ccccc2C(=O)N(C2Cc3ccccc3C2)[C@H]1c1ccc(CO)cc1 . Output composite z-score: 1.17

Input CC(C)=CCCC(C)=CC(O)C1C=CC2C(=O)N(c3ccccc3)C(=O)C2N1Nc1ccccc1F (stereo not given) . Output composite z-score: 0.945

Input COc1ccc(C#Cc2ccc3c(c2)[C@]2(C(=O)N3)[C@H](C(=O)N3CCCCCCC3)[C@H]3C(=O)O[C@H](c4ccccc4)[C@H](c4ccccc4)N3[C@@H]2c2ccc(O)cc2)cc1 . Output composite z-score: 1.56

Input CN(C)CCCCCCNC(=O)[C@@H]1C[C@@H]2C(=O)N[C@@H](CCCCN)C(=O)N2[C@@H]1c1ccc(O)cc1 . Output composite z-score: 1.54

Input CS(=O)(=O)CCOC(=O)C1=CC(CCCO)=CC(C2CC2)N(Cc2cccc(OC(F)(F)F)c2)C=C1C(=O)OCCS(C)(=O)=O (stereo not given) . Output composite z-score: 0.757

Input COC(=O)[C@@]1(Cc2ccccc2)[C@H]2c3cc(C(=O)N(C)C)n(CCn4cc([N+](=O)[O-])nc4C)c3C[C@H]2CN1C(=O)c1ccccc1 . Output composite z-score: 1.13

Input C=C/C=C/[C@@H]1C(=C)CN([C@@H](Cc2ccccc2)C(=O)OC)[C@H]1[C@@H](O)Cc1ccccc1 . Output composite z-score: 1.44

Input CCOC(=O)C=Cc1ccccc1O . Output composite z-score: 0.697

Input [N-]=[N+]=Nc1ccccc1C[C@]1(C(=O)O)N=C(c2ccc(OCCCO)cc2)O[C@H]1c1ccccc1 . Output composite z-score: 1.34

Input Cc1ccccc1C(O)C1C=CC2C(=O)NC(=O)C2N1Nc1ccc(Cl)cc1Cl (stereo not given) . Output composite z-score: 0.528

Input COC(=O)C(CC#Cc1ccc2c(c1)[C@]1(C(=O)N2)[C@H](c2ccc(O)cc2)N2[C@H](c3ccccc3)[C@H](c3ccccc3)OC(=O)[C@H]2[C@@H]1C(=O)N1CCCCCCC1)C(=O)OC . Output composite z-score: 1.53

Input COc1cc(CO)cc(I)c1O[C@H]1C=C(C(=O)NCCO)C[C@@H](NCC2CCCCC2)[C@@H]1O . Output composite z-score: 0.332

Input CCOC(=O)C[C@H]1[C@H](OC(=O)c2cc3ccccc3oc2=O)[C@@H](NC(=O)c2ccc3ccccc3c2)c2cc(OCCCO)ccc2N1C(=O)Cc1ccc(OC)cc1 . Output composite z-score: 0.631

Input CC(C)CNC(=O)[C@@H]1c2ccccc2C(=O)N(C2CCCCC2)[C@H]1c1ccc(CO)cc1 . Output composite z-score: 0.933

Input O=C(N1CCOCC1)[C@@]1(CCS(=O)(=O)c2ccccc2)N=C(c2ccc(OCCCO)cc2)O[C@H]1c1ccccc1 . Output composite z-score: 1.44
